Tested on: Spodoptera littoralis
Method description: Antifeedant activity against Spodoptera littoralis fed on compound treated artificial diet assessed as food ingested by choice feeding assay relative to control
Format: functional
This listing pairs compounds with measured Activity.
Entry rule: numbers only, all in %.

# Compound, Assay target, Activity, %
rows = [
    ("C=C1C(=O)C(C)=C(C)C1(C)C", "Spodoptera littoralis", 88),
    ("CC12CCC(C1)C(C)(C)C2=O (centres undefined) [FENCHONE]", "Spodoptera littoralis", 91),
    ("CC12CCC(CC1=O)C2(C)C (centres undefined) [CAMPHOR]", "Spodoptera littoralis", 83),
]

From here, focus on the item given below.
Recorded Activity of CC12CCC(CC1)C(C)(C)O2 [EUCALYPTOL] , please.
95
